# System: human ether-à-go-go-related gene (hERG) potassium channel (human);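 also: peak tail current of the secondary pulse compared with the same well before compound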
# Sequence (Q12809 whole entry, looked up): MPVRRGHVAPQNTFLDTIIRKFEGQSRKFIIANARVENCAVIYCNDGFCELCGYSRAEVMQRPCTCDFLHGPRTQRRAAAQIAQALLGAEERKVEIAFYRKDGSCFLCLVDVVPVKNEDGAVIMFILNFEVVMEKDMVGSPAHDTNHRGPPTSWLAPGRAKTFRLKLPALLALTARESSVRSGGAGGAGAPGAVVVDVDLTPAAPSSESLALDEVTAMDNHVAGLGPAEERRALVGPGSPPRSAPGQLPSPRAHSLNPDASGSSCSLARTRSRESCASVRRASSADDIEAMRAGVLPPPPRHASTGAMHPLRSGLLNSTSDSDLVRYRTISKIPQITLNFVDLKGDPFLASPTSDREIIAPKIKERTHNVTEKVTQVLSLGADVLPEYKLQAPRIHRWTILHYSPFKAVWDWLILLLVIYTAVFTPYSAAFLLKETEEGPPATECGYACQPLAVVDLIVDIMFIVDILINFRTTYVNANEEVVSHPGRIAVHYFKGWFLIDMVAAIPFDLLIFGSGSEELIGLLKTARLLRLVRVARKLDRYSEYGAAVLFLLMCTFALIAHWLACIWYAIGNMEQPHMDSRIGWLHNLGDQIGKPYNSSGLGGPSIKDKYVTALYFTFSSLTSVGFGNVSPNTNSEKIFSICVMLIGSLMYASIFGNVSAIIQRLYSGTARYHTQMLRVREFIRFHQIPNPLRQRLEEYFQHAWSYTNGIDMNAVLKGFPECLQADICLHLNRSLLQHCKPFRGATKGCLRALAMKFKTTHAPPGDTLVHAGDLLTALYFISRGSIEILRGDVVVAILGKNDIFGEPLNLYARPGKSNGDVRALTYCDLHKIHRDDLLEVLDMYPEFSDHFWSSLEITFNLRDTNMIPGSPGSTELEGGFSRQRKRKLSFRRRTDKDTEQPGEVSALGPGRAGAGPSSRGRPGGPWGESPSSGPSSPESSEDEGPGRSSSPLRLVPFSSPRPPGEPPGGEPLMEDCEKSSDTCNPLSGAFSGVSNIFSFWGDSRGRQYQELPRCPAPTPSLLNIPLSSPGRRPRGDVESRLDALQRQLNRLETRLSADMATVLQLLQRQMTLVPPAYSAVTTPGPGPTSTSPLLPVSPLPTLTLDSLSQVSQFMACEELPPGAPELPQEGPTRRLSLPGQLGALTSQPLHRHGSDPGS
# Protocol notes: primary screen, population patch clamp on CHO cells stably expressing hERG; higher = less effect of the substance
The whole screen tested about 310,000 compounds, of which about 14,000 (4.5%) showed an effect of 50% or more. Effects have a minus sign here. What follows is part of a selection rich in strong results, with near analogues and random picks from the rest.
# if value of hERG current change (%, negative = inhibition) at 10uM reaches -10%, tag satisfied; if it stays below, tag not satisfied

O=C(Nc1ccc2c(c1)OCO2)c1cc(-c2ccncc2)nc2ccccc12 :: satisfied
O=C(NCc1ccccn1)c1cc(-c2ccncc2)nc2ccccc12 :: not satisfied

Input line: Form field: hERG current change (%, negative = inhibition) at 10uM at least -10%? Entry: O=C(NCc1cccnc1)c1cc(Sc2ccccc2Cl)nc2ccccc12
Output line: satisfied

Input line: # check: hERG current change (%, negative = inhibition) at 10uM of O=C(CCC(=O)N(CC(=O)NC1CCCC1)Cc1ccccc1Cl)Nc1nccs1 is greater than or equal to -10%
Output line: not satisfied

Input line: Exam item: decide whether the reported hERG current change (%, negative = inhibition) at 10uM for C[C@]12CC[C@@H]3c4ccc(OS(=O)(=O)[O-])cc4CC[C@H]3[C@@H]1CCC2=O.[Na+] is at least -10%.
Output line: satisfied

Input line: Could you tell me if the measured hERG current change (%, negative = inhibition) at 10uM of O=C(NCc1ccc2c(c1)OCO2)c1cc(-c2ccccn2)nc2ccccc12 reaches -10% or more?
Output line: satisfied

Input line: Say whether O=C(NCc1ccccc1)c1cc(-c2ccncc2)nc2ccccc12 shows hERG current change (%, negative = inhibition) at 10uM of -10% or more.
Output line: not satisfied

Input line: Does Cc1nn(CC(=O)NCc2ccccn2)c(C)c1[N+](=O)[O-] have a reported hERG current change (%, negative = inhibition) at 10uM of at least -10%?
Output line: not satisfied

Input line: State whether the measured hERG current change (%, negative = inhibition) at 10uM reaches -10%, counting equality as reaching it, for O=C(NCc1ccc2c(c1)OCO2)c1cc(-c2ccncc2)nc2ccccc12
Output line: not satisfied
